test system: MCF-7; assay: MTS cell proliferation assay, MCF-7; type: cell-based, human; conditions: Homo sapiens, MCF7, 72 h, read-out: IC50 MCF-7 (Table 1)
pIC50: −log10 of the molar value.
Listed next: entries and their corresponding pIC50.
READOUT_LABEL: pIC50

structure_smiles_string=O=C(Nc1ccc2c(c1)S(=O)(=O)C=C2)c1cc(Cl)ccc1OCCN1CCOCC1 recorded_result=6.31
structure_smiles_string=CN(C)CCOc1ccc(Cl)cc1C(=O)Nc1ccc2c(c1)S(=O)(=O)C=C2 recorded_result=5.46
structure_smiles_string=CN1CCC(Oc2ccc(Cl)cc2C(=O)Nc2ccc([N+](=O)[O-])cc2Cl)CC1 recorded_result=5.39
structure_smiles_string=CN1CCC(Oc2ccc(Cl)cc2C(=O)Nc2ccc3c(c2)S(=O)(=O)C=C3)CC1 recorded_result=5.45

The origin of these recorded values is patent US9884863B2.
